Measured total protein half-life in vivo values are reported for all entries that follow.
TEST PROTOCOL: total protein half-life in vivo (active degradation + dilution); higher = more stable protein
ASSAY CONDITIONS: wild type E. coli NCM3722; growth: P-lim chemostat; doubling time 12 h
MEASUREMENT KIND: total protein half-life in vivo (h)

[[record]]
entry_sequence = "MIGRLLRGGFMTAIYAYLYIPIIILIVNSFNSSRFGINWQGFTTKWYSLLMNNDSLLQAAQHSLTMAVFSATFATLIGSLTAVALYRYRFRGKPFVSGMLFVVMMSPDIVMAISLLVLFMLLGIQLGFWSLLFSHITFCLPFVVVTVYSRLKGFDVRMLEAAKDLGASEFTILRKIILPLAMPAVAAGWVLSFTLSMDDVVVSSFVTGPSYEILPLKIYSMVKVGVSPEVNALATILLVLSLVMVIASQLIARDKTKGNTGDVK [P0AFK6]"
observed = 10.5

[[record]]
entry_sequence = "MNMKLKTLFAAAFAVVGFCSTASAVTYPLPTDGSRLVGQNQVITIPEGNTQPLEYFAAEYQMGLSNMMEANPGVDTFLPKGGTVLNIPQQLILPDTVHEGIVINSAEMRLYYYPKGTNTVIVLPIGIGQLGKDTPINWTTKVERKKAGPTWTPTAKMHAEYRAAGEPLPAVVPAGPDNPMGLYALYIGRLYAIHGTNANFGIGLRVSHGCVRLRNEDIKFLFEKVPVGTRVQFIDEPVKATTEPDGSRYIEVHNPLSTTEAQFEGQEIVPITLTKSVQTVTGQPDVDQVVLDEAIKNRSGMPVRLN [P0AAX8]"
observed = 12.3

[[record]]
entry_sequence = "MSKIKGNVKWFNESKGFGFITPEDGSKDVFVHFSAIQTNGFKTLAEGQRVEFEITNGAKGPSAANVIAL [P0A972]"
observed = 3.16

[[record]]
entry_sequence = "MKLSRISAINWNKISDDKDLEVWNRLTSNFWLPEKVPLSNDIPAWQTLTVVEQQLTMRVFTGLTLLDTLQNVIGAPSLMPDALTPHEEAVLSNISFMEAVHARSYSSIFSTLCQTKDVDAAYAWSEENAPLQRKAQIIQQHYRGDDPLKKKIASVFLESFLFYSGFWLPMYFSSRGKLTNTADLIRLIIRDEAVHGYYIGYKYQKNMEKISLGQREELKSFAFDLLLELYDNELQYTDELYAETPWADDVKAFLCYNANKALMNLGYEPLFPAEMAEVNPAILAALSPNADENHDFFSGSGSSYVMGKAVETEDEDWNF"
observed = 6.6

[[record]]
entry_sequence = "MNNHFKCIGIVGHPRHPTALTTHEMLYRWLCTKGYEVIVEQQIAHELQLKNVKTGTLAEIGQLADLAVVVGGDGNMLGAARTLARYDIKVIGINRGNLGFLTDLDPDNAQQQLADVLEGHYISEKRFLLEAQVCQQDCQKRISTAINEVVLHPGKVAHMIEFEVYIDEIFAFSQRSDGLIISTPTGSTAYSLSAGGPILTPSLDAITLVPMFPHTLSARPLVINSSSTIRLRFSHRRNDLEISCDSQIALPIQEGEDVLIRRCDYHLNLIHPKDYSYFNTLSTKLGWSKKLF [P0A7B3]"
observed = 11.1

[[record]]
entry_sequence = "MANVEIYTKETCPYCHRAKALLSSKGVSFQELPIDGNAAKREEMIKRSGRTTVPQIFIDAQHIGGCDDLYALDARGGLDPLLK [P0AC62]"
observed = 12.6

[[record]]
entry_sequence = "MSIEIANIKKSFGRTQVLNDISLDIPSGQMVALLGPSGSGKTTLLRIIAGLEHQTSGHIRFHGTDVSRLHARDRKVGFVFQHYALFRHMTVFDNIAFGLTVLPRRERPNAAAIKAKVTKLLEMVQLAHLADRYPAQLSGGQKQRVALARALAVEPQILLLDEPFGALDAQVRKELRRWLRQLHEELKFTSVFVTHDQEEATEVADRVVVMSQGNIEQADAPDQVWREPATRFVLEFMGEVNRLQGTIRGGQFHVGAHRWPLGYTPAYQGPVDLFLRPWEVDISRRTSLDSPLPVQVLEASPKGHYTQLVVQPLGWYNEPLTVVMHGDDAPQRGERLFVGLQHARLYNGDERIETRDEELALAQSA"
observed = 4.77

